tested on: Plasmodium berghei; test: Screen against P. berghei liver stage (PbLuc), transformed with Luciferase, at 10uM; type: functional, HepG2; settings: tested at 10 uM
The campaign covered roughly 69,000 compounds. About 8,600 (12%) showed an effect of 50% or more. For the sample, strong results were picked, then their nearest neighbours and some compounds at random.
Measurement kind: INHIBITION (%)
Record the value in %, omitting the unit from your answer.

Worked examples, 2 compounds total:
Compound	INHIBITION / %
CCc1nccn1-c1cccc(C2CCN(C(=O)COC)CC2)n1	20.8
COc1ccc(F)c(F)c1CN1CCC2(CC1)[C@H](O)C[C@@H]2OCCN	7.31

Hello, I am looking for reported INHIBITION with Plasmodium berghei for Cc1nc(C)n(CC2CCCN2Cc2cn3cc(Cl)ccc3n2)n1 (centres undefined) . Could you help? 15.3

Hello, I am looking for reported INHIBITION with Plasmodium berghei for "COc1cc(C)c(CN2CCC3(CC2)[C@H](O)C[C@@H]3OCCN)cc1C" . Could you help? 23.3

Hello, I am looking for reported INHIBITION with Plasmodium berghei for "CCc1nc(CNc2nc3c(s2)c(C)nn3C)cs1" . Could you help? 63.1

Hello, I am looking for reported INHIBITION with Plasmodium berghei for Cc1cccc(C(C)CNC(=O)N2CCC3(C2)OCCO3)c1 (centres undefined) . Could you help? 52.6

Hello, I am looking for reported INHIBITION with Plasmodium berghei for Cc1noc2ncc(C(=O)NCC3CCCOC3)cc12 (centres undefined) . Could you help? -6.45

###

system: Plasmodium berghei; assay: Screen against P. berghei liver stage (PbLuc), transformed with Luciferase, at 10uM; format: functional, HepG2; settings: tested at 10 uM
Out of some 69,000 compounds screened, about 8,600 (12%) showed an effect of 50% or more. This is one part of a sample in which strong results are shown more often than they occur.
Records here are stratified by INHIBITION; strata: zone 1 (below -10%), zone 2 (-10% to below 30%), zone 3 (30% or more)

As a guide, the following entries are already answered.
Molecule	Assigned category
CC(C)[C@H]1CN(Cc2ccccn2)C[C@@H]1NS(=O)(=O)C1CC1	zone 3
O=C(Cn1ncc(N2CCCC2)cc1=O)Nc1ccc2nccnc2c1	zone 2
COCc1noc(Cc2cc(Cl)c3c(c2)OCCCO3)n1	zone 1
O=C1NC2(CCN(C/C=C/c3ccccc3)CC2)CC1c1ccccc1 (configuration not stated)	zone 3
CC(C)[C@H]1CN(Cc2ccccn2)C[C@@H]1NC(=O)CCS(C)(=O)=O	zone 2

Band assignment needed for OCCN1CCCCC1C1OCCO1 (configuration not stated) please. zone 1

Band assignment needed for O=C1NC2(CCN(Cc3cccnc3)CC2)CC1c1cccnc1 (configuration not stated) please. zone 1

Band assignment needed for "Cc1nc(CN2CCc3ccc(S(N)(=O)=O)cc32)oc1C" please. zone 1

Band assignment needed for Cc1cc(Br)cnc1N(C)CC1CCOC1 (configuration not stated) please. zone 2

Band assignment needed for O=C1NC2(CCN(C(=O)Cc3ccsc3)CC2)CC1c1ccccc1 (configuration not stated) please. zone 2

Band assignment needed for "COC(=O)c1ccc(OC)c(Cn2cc(N)cn2)c1" please. zone 2

Band assignment needed for O=C1NC2(CCNCC2)CC1c1ccccc1 (configuration not stated) please. zone 3

Every entry's value here was drawn from ChEMBL document CHEMBL4513216.
